# Lookup of reported PBM binding z-score keyed by entry
System: PPARg:RXRa 270nM:90nM, anti-RXR (NR concentration 270 nM, RXRa partner concentration 90 nM)
Assay: PBM binding z-score (relative to random genomic background probes); higher = stronger binding; sequences stand for … in GC…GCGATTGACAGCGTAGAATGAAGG

- macromolecule-sequence: "CCGAGTACGTTACGAGGGGGCATTCAGTGCGAAT"
  PBM binding z-score: 0.968
- macromolecule-sequence: "TCGAGTAGGTTACGGGGGCCTTCAGGGATGAAGA"
  PBM binding z-score: 3.68
- macromolecule-sequence: "AACGAAAGGTCGACGAGGTGAGTATACACCGTTT"
  PBM binding z-score: 3.42
- macromolecule-sequence: "GCTCGGGGGACAAGGTCAGAGCTTTGTCCGTAGA"
  PBM binding z-score: 4.54
- macromolecule-sequence: "CGAACTAGGTAAAAGGACAGTGAAAGGCGACGTA"
  PBM binding z-score: 6.57
- macromolecule-sequence: "ATCGAAAGGTCGTGAGGTGAGTTTACAGAAAGGC"
  PBM binding z-score: 4.18
- macromolecule-sequence: "CGAACTAGGTCAGAGGACAGTGAAAGGCGACGTA"
  PBM binding z-score: 6.52
- macromolecule-sequence: "CTCGAAAGGTCGGTTGAGGTGACTATACGGATAA"
  PBM binding z-score: 1.11
- macromolecule-sequence: "ATATGTCGGTTAGGGTCATTCAGAAAGTAGGGAA"
  PBM binding z-score: 3.71
- macromolecule-sequence: "CCTACTGGGCCACGAAAGGTAATTGATTCAGTGA"
  PBM binding z-score: 1.38
- macromolecule-sequence: "TCTAGCAGGCCATAGGGTCACTCAAGAGGTACGG"
  PBM binding z-score: 3.27
- macromolecule-sequence: "CAAACTAGGTCAAGGTCAAAGTAGGTTTGTGCCA"
  PBM binding z-score: 8.19
- macromolecule-sequence: "CTATGTAGGTTAAGGGGGGCATTCAGTTTGAAAG"
  PBM binding z-score: 7.37
- macromolecule-sequence: "ACATGTAGGTTAGGGTCATTCAGAAAGTAGGGAA"
  PBM binding z-score: 5.77
- macromolecule-sequence: "AGTAGCAGGCCAAGGGTCACTCAAGATTAGTCCG"
  PBM binding z-score: 7.15
- macromolecule-sequence: "CCTACTGGGCCAAGGTCATTGACCAGTCAAAGCA"
  PBM binding z-score: 4.66
- macromolecule-sequence: "CGAACTAGGTCAGCAGGACAGTGAAGAGGTTGGA"
  PBM binding z-score: 5.16
- macromolecule-sequence: "CAAACTAGGTCACGAAAGGTCAAAGTGGAATGAC"
  PBM binding z-score: 8.11
- macromolecule-sequence: "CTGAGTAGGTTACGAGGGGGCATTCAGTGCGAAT"
  PBM binding z-score: 4.41
- macromolecule-sequence: "TCGAGTAGGTTTCGGGGGCATTCAGGGATGAAGA"
  PBM binding z-score: 2.99
- macromolecule-sequence: "CTATGTAGGTTAAGGGGTTCATTCAGTTTGAAAG"
  PBM binding z-score: 6.53
- macromolecule-sequence: "GATACGGGGTCAGCTAGAGGCCAGAGTATGGAAA"
  PBM binding z-score: 7.16
- macromolecule-sequence: "CTATGTAGGTTTAGGGGGTCATTCAGTTTGAAAG"
  PBM binding z-score: 5.15
- macromolecule-sequence: "ACTAGTTGGTCACCTGAGGTCACACACAATTCGG"
  PBM binding z-score: 3.37
- macromolecule-sequence: "CTATGTCGGTTAAGGGGGTCATTCAGTTTGAAAG"
  PBM binding z-score: 6.26
- macromolecule-sequence: "CCGAGTAGGTTACGGGGGGGCATTCAGTGCGAAT"
  PBM binding z-score: 4.46
- macromolecule-sequence: "CTCGAAAGGTCGGTTGAGGTGAGTAAACGGATAA"
  PBM binding z-score: 1.25
- macromolecule-sequence: "TGTCAGAGTTCAAAGGTAACGTAAGTATCCACAC"
  PBM binding z-score: 6.65
- macromolecule-sequence: "CCTACAGGGCCAAAGGTCATTGATTCCAATGCTC"
  PBM binding z-score: 8.45
- macromolecule-sequence: "CTATGTAGGTTAAGGGTGTCATTCAGTTTGAAAG"
  PBM binding z-score: 7.44
- macromolecule-sequence: "CTCGAAAGGTCGAGCTCAGGTGAGTATACCAAAC"
  PBM binding z-score: 3.54
- macromolecule-sequence: "TAGCCTAGGTCAGATCGGGGCAGTATACGCTATA"
  PBM binding z-score: 1.43
- macromolecule-sequence: "CTCGAAAGGTCGTGGTCAGGTGAGTATACCAAAC"
  PBM binding z-score: 4.6
- macromolecule-sequence: "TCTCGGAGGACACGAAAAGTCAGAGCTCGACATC"
  PBM binding z-score: 1.13
- macromolecule-sequence: "AGCGAAAGGTCGAAGGTGAGTATACCCACCCGAA"
  PBM binding z-score: 5.09
- macromolecule-sequence: "ATATGTAGGTTATGGTCATTCAGAAAGTAGGGAA"
  PBM binding z-score: 4.06
- macromolecule-sequence: "GATCCAGGGTCAGCTAGAGGCCAGAGTATGGAAA"
  PBM binding z-score: 3.15
- macromolecule-sequence: "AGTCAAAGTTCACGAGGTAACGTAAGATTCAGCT"
  PBM binding z-score: 7.53
- macromolecule-sequence: "AGTCAAAGGTCAGGACGAGGTAACGTAAAGCACG"
  PBM binding z-score: 7.95

src = the supplement of paper PMC6555819
